PROTOCOL_DESCRIPTION: Phase 1 single escalating intravenous dose safety and pharmacokinetics (Example 6)
Assay type: in vivo, human
COND: male, human, whole blood; single IV bolus 300 μg, mean ± SD; read-out: CL (converted)
PROPERTY_NAME: clearance
Answer as a quantity: numeral, then unit.

### Prompt Please look up its clearance: CO[C@H]1C[C@@H]2CC[C@@H](C)[C@@](O)(O2)C(=O)C(=O)N2CCCC[C@H]2C(=O)O[C@H]([C@H](C)C[C@@H]2CC[C@H](n3cnnn3)[C@H](OC)C2)CC(=O)[C@H](C)/C=C(\C)[C@@H](O)[C@@H](OC)C(=O)[C@H](C)C[C@H](C)/C=C/C=C/C=C/1C [zotarolimus]
### Response 56 mL/min

###

PROTOCOL_DESCRIPTION: Phase 1 single escalating intravenous dose safety and pharmacokinetics (Example 6)
Format: in vivo, human
COND: male, human, whole blood; single IV bolus 300 μg, mean ± SD; read-out: AUC0-inf
PROPERTY_NAME: AUC(0-inf) (ng·h/mL)
One number for each entry, in ng·h/mL.

### Prompt Please look up its AUC(0-inf): CO[C@H]1C[C@@H]2CC[C@@H](C)[C@@](O)(O2)C(=O)C(=O)N2CCCC[C@H]2C(=O)O[C@H]([C@H](C)C[C@@H]2CC[C@H](n3cnnn3)[C@H](OC)C2)CC(=O)[C@H](C)/C=C(\C)[C@@H](O)[C@@H](OC)C(=O)[C@H](C)C[C@H](C)/C=C/C=C/C=C/1C
### Response 91.2

###

PROTOCOL_DESCRIPTION: Phase 1 single escalating intravenous dose safety and pharmacokinetics (Example 6)
Format: in vivo, human
COND: male, human, whole blood; single IV bolus 900 μg, mean ± SD; read-out: CL (converted)
Procedure: In the present, first-time-in-man study, the safety and pharmacokinetics of zotarolimus were investigated following intravenous bolus administration of zotarolimus over a 100 to 900 μg dose range. […] Doses were administered as IV bolus over 3 minutes, with 8 subjects. […] Blood concentrations of zotarolimus were sampled for 168 hours and measured using LC-MS/MS with a LOQ of 0.20 ng/mL […]
PROPERTY_NAME: clearance (mL/min)
One number for each entry, in mL/min.

### Prompt Please look up its clearance: CO[C@H]1C[C@@H]2CC[C@@H](C)[C@@](O)(O2)C(=O)C(=O)N2CCCC[C@H]2C(=O)O[C@H]([C@H](C)C[C@@H]2CC[C@H](n3cnnn3)[C@H](OC)C2)CC(=O)[C@H](C)/C=C(\C)[C@@H](O)[C@@H](OC)C(=O)[C@H](C)C[C@H](C)/C=C/C=C/C=C/1C [zotarolimus]
### Response 59.2

###

PROTOCOL_DESCRIPTION: Phase 1 single escalating intravenous dose safety and pharmacokinetics (Example 6)
Assay type: in vivo, human
COND: male, human, whole blood; single IV bolus 500 μg, healthy males, blood, concentration at 5 minutes, mean ± SD (N = 7); read-out: C5
PROPERTY_NAME: concentration at 5 min (ng/mL)
Numbers only, in ng/mL.

### Prompt Please look up its concentration at 5 min: CO[C@H]1C[C@@H]2CC[C@@H](C)[C@@](O)(O2)C(=O)C(=O)N2CCCC[C@H]2C(=O)O[C@H]([C@H](C)C[C@@H]2CC[C@H](n3cnnn3)[C@H](OC)C2)CC(=O)[C@H](C)/C=C(\C)[C@@H](O)[C@@H](OC)C(=O)[C@H](C)C[C@H](C)/C=C/C=C/C=C/1C
### Response 56.5
